molecular target: Aldo-keto reductase family 1 member B1 (Rattus norvegicus) (UniProt P07943); assay: Inhibition of rat kidney NADPH-dependent aldose reductase assessed as DL-glyceraldehyde conversion to glycerol at 1 uM preincubated for 20 mins followed by NADPH addition measured after 5 mins by UV-Visible spectrophotometric analysis relative to control
Quick reference: inhibition of the listed items.

Structure smiles string: CC(C)c1ccc(/C=C(C#N)/C=C2\SC(=S)NC2=O)cc1
inhibition: < 50%

Structure smiles string: N#CC(=C\c1cccs1)/C=C1\SC(=S)N(CC(=O)O)C1=O
inhibition: < 50%

Then this compound:
Challenge: Can you share its inhibition? I mean this compound: COc1ccc(/C=C(C#N)/C=C2\SC(=S)NC2=O)cc1
Response given: < 50%

* * *

molecular target: Aldo-keto reductase family 1 member B1 (Rattus norvegicus) (UniProt P07943); assay: Inhibition of rat kidney NADPH-dependent aldose reductase assessed as DL-glyceraldehyde conversion to glycerol preincubated for 20 mins followed by NADPH addition measured after 5 mins by UV-Visible spectrophotometric analysis
Test readout: inhibition

Recorded inhibition, per entry:
Structure smiles string: N#CC(=C\c1cccs1)/C=C1\SC(=S)NC1=O
inhibition: Dose-dependent effect
--
Structure smiles string: N#CC(=C\c1ccco1)/C=C1\SC(=S)N(CC(=O)O)C1=O
inhibition: Dose-dependent effect
--
Structure smiles string: Cc1ccc(/C=C(C#N)/C=C2\SC(=S)NC2=O)cc1
inhibition: Dose-dependent effect
--
Structure smiles string: N#CC(=C\c1ccccc1)/C=C1\SC(=S)N(c2ccc(C(=O)O)cc2)C1=O
inhibition: Dose-dependent effect

Turning now to a further compound:
Challenge: Return inhibition measured with Aldo-keto reductase family 1 member B1 (Rattus norvegicus) (UniProt P07943) given this compound: N#CC(=C\c1ccccc1)/C=C1\SC(=S)N(CC(=O)O)C1=O
Response given: Dose-dependent effect
